The origin of these recorded values is patent US20210032351A1.

- Experimental target: T1, human EGFRvIII-hFc protein (human, UniProt P00533 25-645)
- T1 construct: extracellular domain; made in HEK293 cells, purified on protein A; also called immunogen A; hFc-tagged EGFRvIII protein; not shown: human IgG Fc fragment (hFc) of the pCpC vector
- Measurement protocol: ELISA, coated EGFRvIII-hFc, antibody 0.001 nM
OD450 nm: recorded values

Binder	OD450 nm
Murine anti-63A10 (antibody, V domains shown, murine hybridoma antibody; also called 63A10A7) VH: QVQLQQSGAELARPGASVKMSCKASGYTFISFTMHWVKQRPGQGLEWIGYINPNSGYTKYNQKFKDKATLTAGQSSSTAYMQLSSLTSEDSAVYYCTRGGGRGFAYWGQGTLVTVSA VL: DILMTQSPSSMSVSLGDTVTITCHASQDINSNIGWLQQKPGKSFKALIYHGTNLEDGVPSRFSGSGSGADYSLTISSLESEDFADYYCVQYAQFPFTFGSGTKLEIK	0.09
Murine anti-7E5 (antibody, V domains shown, murine hybridoma antibody; also called 7E5-2A9; murine anti-7E5-2) VH: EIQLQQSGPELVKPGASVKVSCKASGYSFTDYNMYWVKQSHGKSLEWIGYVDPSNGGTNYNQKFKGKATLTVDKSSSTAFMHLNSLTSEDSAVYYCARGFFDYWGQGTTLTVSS VL: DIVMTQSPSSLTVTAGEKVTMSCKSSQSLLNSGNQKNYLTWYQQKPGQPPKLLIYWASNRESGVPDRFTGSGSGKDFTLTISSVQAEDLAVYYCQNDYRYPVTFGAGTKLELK	0.17
